# ASSAYED_TARGET: HLA-A*0201 molecule of T2 cells (Homo sapiens, UniProt P04439, D140Y/D185E/D98H/E176V/E277Q/G131W/G231S/I119V/I121R/I166T/I218V/L300P/L318F/N151K/N90K/P208A/P217A/Q86G/Q94H/R138H/R169H/T345S)
# EXPERIMENT_SUMMARY: MHC-peptide complex stabilization assay on T2 cells
# Type: binding
# Design: key: FI = (MFI sample − MFI background) / MFI background
# TEST_CONTEXT: peptide 1 μg (1 μg/ml), serum-free RPMI 1640, 1 h 37°C, 12 h 26°C, 3 h 37°C, FITC anti-HLA-A*0201, flow cytometry, FI = (MFI sample - MFI background)/MFI background
ATTRIBUTE_MEASURED: FI (fluorescence index)
Write the value as a bare number.

Problem: For the sequence LMMRTTWAL [D2V-NS4b182-190, D2V variant peptide of D1V-NS4b183-191, nonapeptide …] , report FI (fluorescence index).
Solution: 0.58

Problem: For the sequence LLMRTTWAF [D4V-NS4b179-187, D4V variant peptide of D1V-NS4b183-191, nonapeptide …] , report FI (fluorescence index).
Solution: 0.2

Problem: For the sequence QVGTLALSL [D4V-NS2a143-151, D4V variant peptide of D1V-NS2a144-152, nonapeptide …] , report FI (fluorescence index).
Solution: 0.22

Problem: For the sequence AMVLSIVSL [D1V-NS2a169-177] , report FI (fluorescence index).
Solution: 0.03

Problem: For the sequence TILTIIGLI [D4V-NS4a140-148, D4V variant peptide of D1V-NS4a140-148, nonapeptide …] , report FI (fluorescence index).
Solution: 0.15

Problem: For the sequence MLLALIAVL [D1V-NS4a56-64] , report FI (fluorescence index).
Solution: 0.05

Problem: For the sequence AILTVVAAT [D2V-NS4a140-148, D2V variant peptide of D1V-NS4a140-148, nonapeptide …] , report FI (fluorescence index).
Solution: 0.1

Problem: For the sequence QLWTALVSL [D3V-NS2a144-152, D3V variant peptide of D1V-NS2a144-152, nonapeptide …] , report FI (fluorescence index).
Solution: 0.2

Problem: For the sequence LLMRTTWAL [D1V-NS4b183-191] , report FI (fluorescence index).
Solution: 0.29

Problem: For the sequence QLAVTIMAI [D2V-NS2a144-152, D2V variant peptide of D1V-NS2a144-152, nonapeptide …] , report FI (fluorescence index).
Solution: 0.24

Problem: For the sequence LLMRTSWAL [D3V-NS4b182-190, D3V variant peptide of D1V-NS4b183-191, nonapeptide …] , report FI (fluorescence index).
Solution: 0.22

Problem: For the sequence QLWAALLSL [D1V-NS2a144-152] , report FI (fluorescence index).
Solution: 0.05

Problem: For the sequence LVMAFMAFL [D1V-C46-54] , report FI (fluorescence index).
Solution: 0.01

Problem: For the sequence GILTLAAIV [D3V-NS4a140-148, D3V variant peptide of D1V-NS4a140-148, nonapeptide …] , report FI (fluorescence index).
Solution: 0.1
